EC50 values for the molecules below.
assay-system: 5-HT2 receptors in A7r5 rat vascular smooth muscle cells (Rattus norvegicus)
Construct: endogenous in cells; host or cells: A7r5 rat vascular smooth muscle cells
assay-info: 5-HT2 functional assay: [Ca2+]i mobilization (FLIPR)
Format: cell-based
reported-conditions: A7r5 cells, FLIPR; read-out: EC50, nM (5-HT2 functional, [Ca2+]i mobilization)
Where a name gives a salt, the structure may show the parent alone.
assay-endpoint: EC50 (nM)

>>> print(df.to_string())
                                   molecule  observed_measurement
0  COc1cc(CC(C)N)c(OC)cc1I (stereo not drawn) [DOI, reference compound]                  30.2
1  CC(N)Cn1ncc2c1-c1cc(O)ccc1CC2 (stereo not drawn) [Example 2, Dihydrochloride]                   103
2  CC(N)Cn1ncc2c1-c1ccc(O)cc1C2 (stereo not drawn) [Example 5]                   328

###

Emax values for the compounds below.
assay-system: 5-HT2 receptors in A7r5 rat vascular smooth muscle cells (Rattus norvegicus, UniProt P14842)
Construct: endogenous in cells; host or cells: A7r5 rat vascular smooth muscle cells
Sequence (P14842 whole entry): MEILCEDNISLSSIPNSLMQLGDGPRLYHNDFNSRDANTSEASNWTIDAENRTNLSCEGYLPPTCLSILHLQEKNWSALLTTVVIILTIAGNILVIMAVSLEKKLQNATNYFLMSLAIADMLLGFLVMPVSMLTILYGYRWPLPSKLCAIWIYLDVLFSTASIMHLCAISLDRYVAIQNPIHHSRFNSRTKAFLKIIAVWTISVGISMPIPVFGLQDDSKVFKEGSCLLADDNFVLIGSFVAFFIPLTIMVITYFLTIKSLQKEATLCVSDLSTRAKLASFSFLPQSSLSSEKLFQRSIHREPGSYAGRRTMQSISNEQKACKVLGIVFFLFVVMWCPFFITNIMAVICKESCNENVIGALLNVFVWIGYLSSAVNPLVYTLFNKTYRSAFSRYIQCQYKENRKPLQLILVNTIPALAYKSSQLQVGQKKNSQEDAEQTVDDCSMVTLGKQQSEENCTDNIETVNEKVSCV
assay-info: 5-HT2 functional assay: [Ca2+]i mobilization (FLIPR)
Format: cell-based
reported-conditions: A7r5 cells, FLIPR; percentage of maximum 5-HT-induced response; read-out: Efficacy (Emax, %)
Counter-ions that a name gives are not always drawn.
assay-endpoint: Emax

                                   compound  observed_measurement
0  CC(N)Cn1ncc2ccc3cc(O)ccc3c21 (stereo not shown) [Example 4]                   79%
1  CC(N)Cn1ncc2c1-c1cc(O)ccc1CC2 (stereo not shown) [Example 2, Dihydrochloride]                   46%
2  CC(N)Cn1ncc2c1-c1ccc(O)cc1C2 (stereo not shown) [Example 5]                   64%
3  NCCc1c[nH]c2ccc(O)cc12 [Example 5-HT, 5-Hydroxytryptamine, reference compound]                  107%
